Molecular target: Human TRPC6 (Homo sapiens, UniProt Q9Y210)
Construct: expressed in transfected cells
Sequence (Q9Y210 whole entry): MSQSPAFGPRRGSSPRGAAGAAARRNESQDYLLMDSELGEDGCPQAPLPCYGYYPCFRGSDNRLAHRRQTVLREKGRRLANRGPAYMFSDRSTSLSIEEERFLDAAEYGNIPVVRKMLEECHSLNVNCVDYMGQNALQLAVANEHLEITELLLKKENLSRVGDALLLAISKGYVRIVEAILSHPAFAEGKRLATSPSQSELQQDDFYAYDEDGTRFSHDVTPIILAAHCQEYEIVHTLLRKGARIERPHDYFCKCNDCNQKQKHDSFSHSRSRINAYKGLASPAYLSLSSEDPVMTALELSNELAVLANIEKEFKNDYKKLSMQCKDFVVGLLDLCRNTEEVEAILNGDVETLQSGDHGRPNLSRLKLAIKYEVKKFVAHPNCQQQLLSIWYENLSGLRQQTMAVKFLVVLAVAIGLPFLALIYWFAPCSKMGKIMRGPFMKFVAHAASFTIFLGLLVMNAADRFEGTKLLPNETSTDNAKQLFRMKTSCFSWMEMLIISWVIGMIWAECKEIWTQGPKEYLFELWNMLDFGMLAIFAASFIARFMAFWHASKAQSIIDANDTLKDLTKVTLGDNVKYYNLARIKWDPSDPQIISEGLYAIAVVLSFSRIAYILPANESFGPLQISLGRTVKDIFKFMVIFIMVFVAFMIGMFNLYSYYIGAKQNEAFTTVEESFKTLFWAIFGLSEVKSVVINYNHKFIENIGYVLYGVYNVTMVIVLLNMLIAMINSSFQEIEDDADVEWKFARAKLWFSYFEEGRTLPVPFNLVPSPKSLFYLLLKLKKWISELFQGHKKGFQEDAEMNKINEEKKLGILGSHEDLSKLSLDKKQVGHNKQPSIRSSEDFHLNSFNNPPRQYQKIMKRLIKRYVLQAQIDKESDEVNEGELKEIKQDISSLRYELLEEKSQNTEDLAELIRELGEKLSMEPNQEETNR
Assay: Evaluation of TRPC6 channel inhibitory activity (1), FLIPR Calcium 5 Assay Kit, OAG stimulation (Compound Nos. 1-1293)
Type: cell-based
Settings: Human TRPC6 stably-expressing cells, OAG 30 μM, FLIPR Calcium 5 Assay Kit; read-out: Inhibitory activity (pIC50 class) (converted)
resultType: IC50

# cpdSmiles, dataValue
data = [
    ("Cc1nc(Oc2cc(C#N)ccc2-c2ncc(CCN)cn2)cc(OC2CCC2)n1", "10 to 1000 nM"),
    ("Cn1nc(C2CC2)cc1Oc1cc(C#N)ccc1-c1ccc2c(N)noc2c1", "> 1000 nM"),
    ("Cn1nc(-c2ccccn2)cc1Oc1nc(C#N)ccc1-c1ncc(CN)cn1", "> 1000 nM"),
    ("Cc1nc(NC2CCOCC2)cc(Oc2cc(C#N)ccc2-c2ncc(CN)cn2)n1", "> 1000 nM"),
]

----------
Overview of reported IC50 across a group of compounds:
Target: Human TRPC6 (Homo sapiens, UniProt Q9Y210)
Construct: expressed in transfected cells
Experiment: Evaluation of TRPC6 channel inhibitory activity (1), FLIPR Calcium 5 Assay Kit, OAG stimulation (Compound Nos. 1-1293)
Format: cell-based
Conditions: Human TRPC6 stably-expressing cells, OAG 30 μM, FLIPR Calcium 5 Assay Kit; read-out: Inhibitory activity (pIC50 class) (converted)

# compound, studySystem, IC50
measured = [
    ("Cc1nc(Oc2cc(C#N)ccc2-n2cc3c(n2)CCC(N)C3O)cc(-c2ccccc2)n1 (stereo not shown)", "Human TRPC6 (Homo sapiens, UniProt Q9Y210)", "> 1000 nM"),
    ("N#Cc1ccc(-c2ccc(CCN)cn2)c(Oc2cnnc(N3CCCCC3)c2)c1", "Human TRPC6 (Homo sapiens, UniProt Q9Y210)", "10 to 1000 nM"),
    ("Cn1nc(C(C)(C)C)cc1Oc1cc(C#N)ccc1-c1ncc(CCN)cn1", "Human TRPC6 (Homo sapiens, UniProt Q9Y210)", "< 10 nM"),
    ("N#Cc1ccc(-c2ccc(CCN)nc2)c(Oc2cnnc(N3CCCCC3)c2)c1", "Human TRPC6 (Homo sapiens, UniProt Q9Y210)", "10 to 1000 nM"),
    ("Cc1nc(OCCCF)cc(Oc2cc(C#N)ccc2-c2ccc(CCN)cc2)n1", "Human TRPC6 (Homo sapiens, UniProt Q9Y210)", "10 to 1000 nM"),
    ("CC(C)Cc1cc(Oc2cc(C#N)ccc2-c2ccc(CCN)cn2)n(C)n1", "Human TRPC6 (Homo sapiens, UniProt Q9Y210)", "< 10 nM"),
    ("N#Cc1ccc(-c2ccc(CCN)nc2)c(Cn2cnc(-c3ccccc3)c2)c1", "Human TRPC6 (Homo sapiens, UniProt Q9Y210)", "10 to 1000 nM"),
    ("Cc1nc(Oc2cc(C#N)ccc2-c2ccc(C(O)CN)c(F)c2F)cc(N2CCOCC2)n1 (stereo not shown)", "Human TRPC6 (Homo sapiens, UniProt Q9Y210)", "< 10 nM"),
    ("Cn1nc(C2CC2)c(F)c1Oc1cc(C#N)ccc1-c1ncc(CCN)cn1", "Human TRPC6 (Homo sapiens, UniProt Q9Y210)", "10 to 1000 nM"),
    ("Cn1nccc1Oc1cc(C#N)ccc1-c1ccc(CCN)cn1", "Human TRPC6 (Homo sapiens, UniProt Q9Y210)", "10 to 1000 nM"),
    ("N#Cc1ccc(-c2ncc(CN)cn2)c(Cn2cc(-c3ccccc3)nn2)c1", "Human TRPC6 (Homo sapiens, UniProt Q9Y210)", "10 to 1000 nM"),
    ("Cn1nc(-c2ccccc2)cc1Oc1cc(C#N)ccc1-n1cc(N2CCCNCC2=O)cn1", "Human TRPC6 (Homo sapiens, UniProt Q9Y210)", "> 1000 nM"),
    ("Cc1cc(Oc2cc(C#N)ccc2-c2ccc(CN)n3ccnc23)cc(N2CCOCC2)n1", "Human TRPC6 (Homo sapiens, UniProt Q9Y210)", "10 to 1000 nM"),
    ("Cc1nc(Oc2cc(C#N)ccc2-n2cc(CC(N)C(=O)O)c3ccccc32)cc(-c2ccccc2)n1 (stereo not shown)", "Human TRPC6 (Homo sapiens, UniProt Q9Y210)", "> 1000 nM"),
    ("Cc1nc(Nc2cc(C#N)ccc2-c2ccc(C(=O)CN)cc2)cc(N2CCOCC2)n1", "Human TRPC6 (Homo sapiens, UniProt Q9Y210)", "> 1000 nM"),
    ("Cn1nc(C2CCOC2)cc1Oc1cc(C#N)ccc1-c1ncc(CCN)cn1 (stereo not shown)", "Human TRPC6 (Homo sapiens, UniProt Q9Y210)", "10 to 1000 nM"),
    ("Cn1nc(C2CC2)cc1Oc1cc(C#N)ccc1-c1ccc([C@@H](O)CN)cn1", "Human TRPC6 (Homo sapiens, UniProt Q9Y210)", "< 10 nM"),
    ("Cn1nc(-c2ccccn2)cc1Oc1cc(C#N)ccc1-c1cccn2c(CN)nnc12", "Human TRPC6 (Homo sapiens, UniProt Q9Y210)", "10 to 1000 nM"),
    ("Cn1nc(-c2cccc(F)c2)cc1Oc1cc(C#N)ccc1-c1ncc(CCN)cn1", "Human TRPC6 (Homo sapiens, UniProt Q9Y210)", "< 10 nM"),
    ("COc1cc(-c2ccc(C#N)cc2Oc2cc(N3CCOCC3)nc(C)n2)ccc1C(O)CN (stereo not shown)", "Human TRPC6 (Homo sapiens, UniProt Q9Y210)", "10 to 1000 nM"),
    ("Cn1nc(-c2ccccc2O)cc1Oc1cc(C#N)ccc1-c1ccc(C(O)CN)cn1 (stereo not shown)", "Human TRPC6 (Homo sapiens, UniProt Q9Y210)", "< 10 nM"),
    ("Cc1nn(C2CCCCC2)cc1Oc1cc(C#N)ccc1-c1ncc(CN)cn1", "Human TRPC6 (Homo sapiens, UniProt Q9Y210)", "> 1000 nM"),
    ("N#Cc1ccc(-c2ccc(CCN)cc2)c(Cn2ccc(-c3ccccc3)n2)c1", "Human TRPC6 (Homo sapiens, UniProt Q9Y210)", "> 1000 nM"),
    ("NCCc1cnc(-c2ccc(F)cc2C(=O)c2cnn(C3CCC3)c2)nc1", "Human TRPC6 (Homo sapiens, UniProt Q9Y210)", "10 to 1000 nM"),
    ("CN(C)c1cc(Cc2cc(C#N)ccc2-c2ccc(CCN)cn2)n(C)n1", "Human TRPC6 (Homo sapiens, UniProt Q9Y210)", "< 10 nM"),
    ("Cc1nc(-c2cccc(F)c2)cn1Cc1cc(C#N)ccc1-c1ccc(CCN)cn1", "Human TRPC6 (Homo sapiens, UniProt Q9Y210)", "< 10 nM"),
    ("Cc1nc(Oc2cc(C#N)ccc2-c2ccc3c(c2)CC(N)C3O)cc(N2CCOCC2)n1 (stereo not shown)", "Human TRPC6 (Homo sapiens, UniProt Q9Y210)", "10 to 1000 nM"),
    ("Cc1cc(Oc2cc(C#N)ccc2-c2ccc(C(=O)CN)cc2)cc(-c2ccccc2)n1", "Human TRPC6 (Homo sapiens, UniProt Q9Y210)", "> 1000 nM"),
    ("Cn1nc(N2CC(F)(F)C(F)(F)C2)cc1Oc1cc(C#N)ccc1-c1ncc(CN)cn1", "Human TRPC6 (Homo sapiens, UniProt Q9Y210)", "< 10 nM"),
    ("Cn1nc2c(c1Oc1cc(C#N)ccc1-c1ncc(CN)cn1)CCCC2", "Human TRPC6 (Homo sapiens, UniProt Q9Y210)", "> 1000 nM"),
    ("CC(C)NC(=O)C(N)c1ccc(-c2ccc(C#N)cc2Oc2cc(C3CC3)nn2C)nc1 (stereo not shown)", "Human TRPC6 (Homo sapiens, UniProt Q9Y210)", "> 1000 nM"),
    ("N#Cc1ccc(-c2ccc(CCN)cn2)c(Sc2cnnc(N3CCOCC3)c2)c1", "Human TRPC6 (Homo sapiens, UniProt Q9Y210)", "10 to 1000 nM"),
    ("Cc1cc(Oc2cc(C#N)ccc2-c2ncc([C@H](O)CN)cn2)cc(N2CCOC(C)(C)C2)n1", "Human TRPC6 (Homo sapiens, UniProt Q9Y210)", "< 10 nM"),
    ("Cn1nc(C2CCOCC2)cc1Oc1cc(C#N)ccc1-c1ncc(CCN)cn1", "Human TRPC6 (Homo sapiens, UniProt Q9Y210)", "< 10 nM"),
]
